# Assay target: c-Kit(V654A) (Homo sapiens, UniProt P10721, V654A)
# Construct: recombinant human c-Kit, amino acids 544-end containing the V654A mutation; GST (N)
# Sequence (P10721 544-976 V654A): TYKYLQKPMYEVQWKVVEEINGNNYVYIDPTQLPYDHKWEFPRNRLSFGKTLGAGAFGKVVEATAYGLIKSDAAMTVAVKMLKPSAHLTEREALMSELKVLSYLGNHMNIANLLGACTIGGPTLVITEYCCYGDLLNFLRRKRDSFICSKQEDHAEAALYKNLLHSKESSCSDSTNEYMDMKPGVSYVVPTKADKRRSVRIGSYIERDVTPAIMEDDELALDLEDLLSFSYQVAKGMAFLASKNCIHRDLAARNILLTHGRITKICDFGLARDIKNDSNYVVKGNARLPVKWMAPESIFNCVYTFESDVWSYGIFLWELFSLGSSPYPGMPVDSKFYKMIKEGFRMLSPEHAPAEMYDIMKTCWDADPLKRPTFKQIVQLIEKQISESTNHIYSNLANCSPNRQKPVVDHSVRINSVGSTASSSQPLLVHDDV
# Experimental protocol: c-Kit(V654A) assay (33P-ATP filter binding kinase assay)
# Assay context: recombinant human c-Kit aa 544-end V654A, ATP 200 μM
Binning scheme for IC50: bottom range: < 8 nM; center range: ≥ 8 nM and < 10 nM; top range: ≥ 10 nM

{"Compound": "CN1CCO[C@H](COc2ccn3c(-c4cc(NCc5ccc(-c6cnn(C)c6)cc5)ncn4)cnc3c2)C1", "Group label": "bottom range"}
{"Compound": "Cn1cc(-c2ccc(CNc3cc(-c4cnc5cc(N6CCN(C7COC7)CC6)ccn45)ncn3)cc2)cn1", "Group label": "top range"}
{"Compound": "Cn1ncc(-c2ccc(CNc3cc(-c4cnc5cc(OCCN6CCC6)ccn45)ncn3)cc2)n1", "Group label": "center range"}
{"Compound": "Cn1cc(-c2ccc(CNc3cc(-c4cnc5cc(OCCCN6CCN(C7CC7)CC6)ccn45)ncn3)cc2)cn1", "Group label": "bottom range"}
{"Compound": "Cn1cc(-c2ccc(CNc3cc(-c4cnc5cc(OCCCN[C@@H]6CCOC6)ccn45)ncn3)cc2)cn1", "Group label": "bottom range"}
{"Compound": "Cn1ncc(-c2ccc(CNc3cc(-c4cnc5cc(OCCc6nccn6C)ccn45)ncn3)cc2)n1", "Group label": "center range"}
{"Compound": "Cn1cc(-c2ccc(CNc3cc(-c4cnc5cc(OCCN6CCn7cccc7C6)ccn45)ncn3)cc2)cn1", "Group label": "top range"}
{"Compound": "COc1ccn2c(-c3cc(NCc4ccc(-c5cnn(CCN6CCOCC6)c5)cc4)ncn3)cnc2c1", "Group label": "top range"}
{"Compound": "Cn1cc(-c2ccc(CNc3cc(-c4cnc5cc(OCC6CCN(C7CC7)CC6)ccn45)ncn3)cc2)cn1", "Group label": "bottom range"}
{"Compound": "CC(COc1ccn2c(-c3cc(NCc4ccc(-c5cnn(C)c5)cc4)ncn3)cnc2c1)CN1CCCC1 (stereo not drawn)", "Group label": "bottom range"}

Let's switch to this compound now.
Please classify: "Cn1cc(-c2ccc(CNc3cc(-c4cnc5cc(OCC(C)(C)CN6CCCC6)ccn45)ncn3)cc2)cn1"
center range

###

# Assay target: GIST430/654 cell line expressing mutated constitutively active cKIT receptor tyrosine kinase (Δ560-576 deletion and V654A point mutation) (Homo sapiens, UniProt P10721, DEL560-576/V654A)
# Construct: endogenous in cells
# Sequence (P10721 with tags, fused parts or gaps DEL560-576/V654A): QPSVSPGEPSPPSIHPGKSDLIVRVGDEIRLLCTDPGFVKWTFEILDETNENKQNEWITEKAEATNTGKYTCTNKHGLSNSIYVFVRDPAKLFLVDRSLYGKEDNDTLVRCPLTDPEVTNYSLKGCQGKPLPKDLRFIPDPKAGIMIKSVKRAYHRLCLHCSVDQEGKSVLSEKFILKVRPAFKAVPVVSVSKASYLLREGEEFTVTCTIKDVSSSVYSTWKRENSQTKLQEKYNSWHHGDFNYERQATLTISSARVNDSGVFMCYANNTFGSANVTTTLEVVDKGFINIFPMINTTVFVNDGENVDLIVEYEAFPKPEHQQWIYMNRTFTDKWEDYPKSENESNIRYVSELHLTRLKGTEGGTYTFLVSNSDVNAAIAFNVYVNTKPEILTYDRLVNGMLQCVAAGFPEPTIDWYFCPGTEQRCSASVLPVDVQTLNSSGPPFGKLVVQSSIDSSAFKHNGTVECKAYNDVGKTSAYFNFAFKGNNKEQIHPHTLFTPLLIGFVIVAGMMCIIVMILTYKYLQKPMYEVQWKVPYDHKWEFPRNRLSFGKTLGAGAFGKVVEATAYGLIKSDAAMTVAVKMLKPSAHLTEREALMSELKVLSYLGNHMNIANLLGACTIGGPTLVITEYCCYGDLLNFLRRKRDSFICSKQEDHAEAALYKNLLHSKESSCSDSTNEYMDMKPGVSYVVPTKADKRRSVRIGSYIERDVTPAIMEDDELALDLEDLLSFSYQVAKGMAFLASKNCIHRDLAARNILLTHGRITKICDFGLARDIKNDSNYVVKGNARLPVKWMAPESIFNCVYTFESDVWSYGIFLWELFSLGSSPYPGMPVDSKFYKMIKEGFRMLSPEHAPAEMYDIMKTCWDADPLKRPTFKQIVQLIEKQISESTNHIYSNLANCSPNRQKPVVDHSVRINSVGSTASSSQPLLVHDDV
# Experimental protocol: Cellular cKIT autophosphorylation (phospho-Y307-cKIT, Luminex bead assay) in GIST430/654 cells
# Assay context: compounds 45 min, read-out: GIST 430/654 IC50
Endpoint name: pIC50
FYI, pIC50 means -log10 of a concentration in mol per litre.

{"Compound": "COc1ccn2c(-c3cc(NCc4ccc(-c5cnn(C)n5)cc4)ncn3)cnc2c1 [A32]", "Endpoint name": "pIC50", "Readout number": 7.11}
{"Compound": "Cn1cc(-c2ccc(CNc3cc(-c4cnc5cc(-n6cncn6)ccn45)ncn3)cc2)cn1 [A266]", "Endpoint name": "pIC50", "Readout number": 6.89}
{"Compound": "COc1ccn2c(-c3cc(OCc4ccc(-c5cnn(C)c5)cc4)ncn3)cnc2c1 [A158]", "Endpoint name": "pIC50", "Readout number": 6.85}

Which value of pIC50 has been reported for Cn1ncc(-c2ccc(CNc3cc(-c4cnc5cc(OCCc6cccnc6)ccn45)ncn3)cc2)n1 [A126] in the records?
6.85
